Examples of molecules with documented GI50 follow.
test system: Hs578t (Breast adenocarcinoma cell line); test: cell proliferation inhibitory activity, WST-8 (Test Example 2); format: cell-based; conditions: Homo sapiens, Hs-578T, 48 h, 2 days with compound

Below, each entry is followed by its recorded GI50 result.
INSERT INTO assay_data (molecule, measurement_kind, recorded_value) VALUES
  ('C[C@@H]1[C@@H](O)[C@H](C)C[C@@H]2C=C[C@H](C)[C@H](/C=C/C=C(\Br)C(=O)NCc3cccnc3)[C@@H]12', 'GI50', '30 nM'),
  ('C[C@@H]1[C@@H](O)[C@H](C)C[C@@H]2C=C[C@H](C)[C@H](/C=C/C=C(\Br)C(=O)NCc3cncs3)[C@@H]12', 'GI50', '30 nM'),
  ('C[C@@H]1[C@@H](O)[C@H](C)C[C@@H]2C=C[C@H](C)[C@H](/C=C/C=C(\Br)C(=O)NCc3cocn3)[C@@H]12', 'GI50', '3 nM');

Prompt: Identify the reported GI50 for the following entry. C[C@@H]1[C@@H](O)[C@H](C)C[C@@H]2C=C[C@H](C)[C@H](/C=C/C=C(\Br)C(=O)NCc3nccs3)[C@@H]12
Completion: 30 nM

Prompt: Entry C/C(=C\C=C\[C@@H]1[C@H]2[C@H](C)[C@@H](O)[C@H](C)C[C@@H]2C=C[C@@H]1C)C(=O)NCc1cccnc1 [M-COPA, 2-methylcoprophilinamide, reference compound] needs its GI50 filled in; supply it.
Completion: 40 nM

Prompt: Give GI50 for the following molecule: C[C@@H]1[C@@H](O)[C@H](C)C[C@@H]2C=C[C@H](C)[C@H](/C=C/C=C(\Br)C(=O)NCc3cnco3)[C@@H]12
Completion: 3 nM

Prompt: Supply reported GI50 belonging to this molecule: C[C@H]1[C@@H]2[C@@H](/C=C/C=C(\Br)C(=O)NCc3cccnc3)[C@@H](C)C=C[C@H]2CC[C@@H]1O
Completion: 10 nM

Prompt: Supply GI50 value. Item: C[C@H]1[C@@H]2[C@@H](/C=C/C=C(\Br)C(=O)NCc3cncs3)[C@@H](C)C=C[C@H]2CC[C@@H]1O
Completion: 30 nM

---

system: HMC-1.2 cells; experiment: cell proliferation inhibitory activity, ATP production (Test Example 1); assay type: cell-based, human; details: Homo sapiens, 48 h; HMC-1.2 cells (KIT^V560G/D816V, imatinib-resistant), cultured 2 days with compound, ATP production, n=3
Each entry below lists one item and its recorded pIC50 value.
Interpret pIC50 as the negative base-10 log of the concentration measured in mol/L.

INSERT INTO measurements (molecule, measurement_kind, recorded_value) VALUES
  ('C[C@@H]1[C@@H](O)[C@H](C)C[C@@H]2C=C[C@H](C)[C@H](/C=C/C=C(\Br)C(=O)NCc3cccnc3)[C@@H]12', 'pIC50', 7.38),
  ('C[C@@H]1[C@@H](O)[C@H](C)C[C@@H]2C=C[C@H](C)[C@H](/C=C/C=C(\Br)C(=O)NCc3cnco3)[C@@H]12', 'pIC50', 7.30),
  ('C/C(=C\C=C\[C@@H]1[C@H]2[C@H](C)[C@@H](O)[C@H](C)C[C@@H]2C=C[C@@H]1C)C(=O)NCc1cccnc1 [M-COPA, 2-methylcoprophilinamide, reference compound]', 'pIC50', 7.07);

Pending molecule:
Prompt: Report pIC50, nothing else, for this molecule: C[C@@H]1[C@@H](O)[C@H](C)C[C@@H]2C=C[C@H](C)[C@H](/C=C/C=C(\Br)C(=O)NCc3cncs3)[C@@H]12
Completion: 7.43
